Assay: Protein binding in human plasma
Type: ADME, cell-free
Settings: read-out: PB (converted)
Quantity Measured: fraction unbound
Number, no unit, nothing else.

Entry `CCCCCCCCCCNCCN[C@@]1(C)C[C@H](O[C@H]2[C@H](Oc3c4cc5cc3Oc3ccc(cc3Cl)[C@@H](O)[C@@H](NC(=O)[C@@H](CC(C)C)NC)C(=O)N[C@@H](CC(N)=O)C(=O)N[C@H]5C(=O)N[C@H]3C(=O)N[C@H](C(=O)N[C@H](C(=O)O)c5cc(O)c(CNCP(=O)(O)O)c(O)c5-c5cc3ccc5O)[C@H](O)c3ccc(c(Cl)c3)O4)O[C@H](CO)[C@@H](O)[C@@H]2O)O[C@@H](C)[C@H]1O` ; fraction unbound = 0.1

* * *

Consider the following molecules and their measured MIC90 readings.
System: Streptococcus sp. 'group B'
Test: Antimicrobial activity against Streptococcus group B after 20 to 24 hrs by broth microdilution method
Type: functional
State the answer as a number, implicitly in µg/mL.

Molecule	Unit Of Measure	Value Measured
CCCCCCCCCCNCCN[C@@]1(C)C[C@H](O[C@H]2[C@H](Oc3c4cc5cc3Oc3ccc(cc3Cl)[C@@H](O)[C@@H](NC(=O)[C@@H](CC(C)C)NC)C(=O)N[C@@H](CC(N)=O)C(=O)N[C@H]5C(=O)N[C@H]3C(=O)N[C@H](C(=O)N[C@H](C(=O)O)c5cc(O)c(CNCP(=O)(O)O)c(O)c5-c5cc3ccc5O)[C@H](O)c3ccc(c(Cl)c3)O4)O[C@H](CO)[C@@H](O)[C@@H]2O)O[C@@H](C)[C@H]1O [TELAVANCIN]	µg/mL	0.06

Kindly note the recorded MIC90 for `CCCCCCCCCC(=O)N[C@@H](Cc1c[nH]c2ccccc12)C(=O)N[C@H](CC(N)=O)C(=O)N[C@@H](CC(=O)O)C(=O)N[C@@H]1C(=O)NCC(=O)N[C@@H](CCCN)C(=O)N[C@@H](CC(=O)O)C(=O)N[C@H](C)C(=O)N[C@@H](CC(=O)O)C(=O)NCC(=O)N[C@H](CO)C(=O)N[C@@H]([C@H](C)CC(=O)O)C(=O)N[C@@H](CC(=O)c2ccccc2N)C(=O)O[C@@H]1C` , which is 0.25

* * *

A collection of molecules and their measured MIC90
System: Streptococcus sp. 'group B'
Assay: Antimicrobial activity against Streptococcus group B after 20 to 24 hrs by broth microdilution method
Type: functional
Please state the figure in µg/mL; there is no need to write the unit.

Test Smiles	Tested Target	MIC90 (µg/mL)
CC[C@H]1OC(=O)[C@H](C)[C@@H](O[C@H]2C[C@@](C)(OC)[C@@H](O)[C@H](C)O2)[C@H](C)[C@@H](O[C@@H]2O[C@H](C)C[C@H](N(C)C)[C@H]2O)[C@](C)(O)C[C@@H](C)C(=O)[C@H](C)[C@@H](O)[C@]1(C)O	Streptococcus sp. 'group B'	0.5

// recorded MIC90 for `C[C@H]1COc2c(N3CCN(C)CC3)c(F)cc3c(=O)c(C(=O)O)cn1c23.C[C@H]1COc2c(N3CCN(C)CC3)c(F)cc3c(=O)c(C(=O)O)cn1c23.O` : 1

Sample `CN[C@H](CC(C)C)C(=O)N[C@H]1C(=O)N[C@@H](CC(N)=O)C(=O)N[C@H]2C(=O)N[C@H]3C(=O)N[C@H](C(=O)N[C@H](C(=O)O)c4cc(O)cc(O)c4-c4cc3ccc4O)[C@H](O)c3ccc(c(Cl)c3)Oc3cc2cc(c3O[C@@H]2O[C@H](CO)[C@@H](O)[C@H](O)[C@H]2O[C@H]2C[C@](C)(N)[C@H](O)[C@H](C)O2)Oc2ccc(cc2Cl)[C@H]1O` ; MIC90 observed: 0.5

Entry `CC(=O)NC[C@H]1CN(c2ccc(N3CCOCC3)c(F)c2)C(=O)O1` — recorded MIC90 = 1

Reported MIC90 for `CO/N=C(\C(=O)N[C@@H]1C(=O)N2C(C(=O)O)=C(CSc3nc(=O)c(O)nn3C)CS[C@H]12)c1csc(N)n1` was 0.06
